# TEST_TARGET: TACE (ADAM17) (Homo sapiens, UniProt P78536)
# Construct: made in house; host or cells: mammalian cells or insect cells
# Sequence (P78536 215-824): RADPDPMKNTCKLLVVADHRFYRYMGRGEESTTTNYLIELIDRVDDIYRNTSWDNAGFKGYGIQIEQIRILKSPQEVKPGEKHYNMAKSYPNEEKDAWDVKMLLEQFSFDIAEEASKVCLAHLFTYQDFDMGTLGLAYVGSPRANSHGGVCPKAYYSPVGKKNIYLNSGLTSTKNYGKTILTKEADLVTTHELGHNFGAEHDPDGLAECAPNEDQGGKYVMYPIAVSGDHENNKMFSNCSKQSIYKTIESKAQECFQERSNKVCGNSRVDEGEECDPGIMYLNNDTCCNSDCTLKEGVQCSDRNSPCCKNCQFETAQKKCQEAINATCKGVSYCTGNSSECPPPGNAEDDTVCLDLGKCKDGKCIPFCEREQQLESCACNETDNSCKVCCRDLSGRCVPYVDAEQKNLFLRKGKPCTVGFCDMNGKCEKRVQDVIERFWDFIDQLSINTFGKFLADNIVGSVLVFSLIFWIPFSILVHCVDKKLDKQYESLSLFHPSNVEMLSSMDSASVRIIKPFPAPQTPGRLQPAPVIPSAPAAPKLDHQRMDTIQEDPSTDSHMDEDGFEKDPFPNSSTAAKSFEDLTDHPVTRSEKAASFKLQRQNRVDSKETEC
# ASSAY_NAME: TACE (ADAM17) inhibition test
# Assay type: biochemical
# CONDITION_CONTEXT: fluorescent synthetic substrate, 37° C. for 1.5 hours; read-out: TACE IC50
# maps each entry to its IC50

[[record]]
compound = "Cc1cccn(CC2(c3ccc4c(c3)OCO4)NC(=O)NC2=O)c1=O (racemic)"
reported_result = "< 100 nM"

[[record]]
compound = "Cc1cccn(CC2(c3ccc(F)cc3)NC(=O)NC2=O)c1=O (racemic)"
reported_result = "< 100 nM"

[[record]]
compound = "COc1ccc(C)cc1C1(Cn2cccc(C)c2=O)NC(=O)NC1=O (racemic)"
reported_result = "≥ 100 nM"


Next:
[Q] Sample Cc1cccn(CC2(c3ccc(C(C)(C)C)cc3)NC(=O)NC2=O)c1=O (racemic) — what was its IC50?
[A] < 100 nM
